biological target: IGF-IR (Homo sapiens); test: Cellular Capture ELISA of IGF-I induced autophosphorylation of the IGF-IR; format: cell-based; settings: read-out: IGF-1R IC50
Sequence (P08069 31-1367): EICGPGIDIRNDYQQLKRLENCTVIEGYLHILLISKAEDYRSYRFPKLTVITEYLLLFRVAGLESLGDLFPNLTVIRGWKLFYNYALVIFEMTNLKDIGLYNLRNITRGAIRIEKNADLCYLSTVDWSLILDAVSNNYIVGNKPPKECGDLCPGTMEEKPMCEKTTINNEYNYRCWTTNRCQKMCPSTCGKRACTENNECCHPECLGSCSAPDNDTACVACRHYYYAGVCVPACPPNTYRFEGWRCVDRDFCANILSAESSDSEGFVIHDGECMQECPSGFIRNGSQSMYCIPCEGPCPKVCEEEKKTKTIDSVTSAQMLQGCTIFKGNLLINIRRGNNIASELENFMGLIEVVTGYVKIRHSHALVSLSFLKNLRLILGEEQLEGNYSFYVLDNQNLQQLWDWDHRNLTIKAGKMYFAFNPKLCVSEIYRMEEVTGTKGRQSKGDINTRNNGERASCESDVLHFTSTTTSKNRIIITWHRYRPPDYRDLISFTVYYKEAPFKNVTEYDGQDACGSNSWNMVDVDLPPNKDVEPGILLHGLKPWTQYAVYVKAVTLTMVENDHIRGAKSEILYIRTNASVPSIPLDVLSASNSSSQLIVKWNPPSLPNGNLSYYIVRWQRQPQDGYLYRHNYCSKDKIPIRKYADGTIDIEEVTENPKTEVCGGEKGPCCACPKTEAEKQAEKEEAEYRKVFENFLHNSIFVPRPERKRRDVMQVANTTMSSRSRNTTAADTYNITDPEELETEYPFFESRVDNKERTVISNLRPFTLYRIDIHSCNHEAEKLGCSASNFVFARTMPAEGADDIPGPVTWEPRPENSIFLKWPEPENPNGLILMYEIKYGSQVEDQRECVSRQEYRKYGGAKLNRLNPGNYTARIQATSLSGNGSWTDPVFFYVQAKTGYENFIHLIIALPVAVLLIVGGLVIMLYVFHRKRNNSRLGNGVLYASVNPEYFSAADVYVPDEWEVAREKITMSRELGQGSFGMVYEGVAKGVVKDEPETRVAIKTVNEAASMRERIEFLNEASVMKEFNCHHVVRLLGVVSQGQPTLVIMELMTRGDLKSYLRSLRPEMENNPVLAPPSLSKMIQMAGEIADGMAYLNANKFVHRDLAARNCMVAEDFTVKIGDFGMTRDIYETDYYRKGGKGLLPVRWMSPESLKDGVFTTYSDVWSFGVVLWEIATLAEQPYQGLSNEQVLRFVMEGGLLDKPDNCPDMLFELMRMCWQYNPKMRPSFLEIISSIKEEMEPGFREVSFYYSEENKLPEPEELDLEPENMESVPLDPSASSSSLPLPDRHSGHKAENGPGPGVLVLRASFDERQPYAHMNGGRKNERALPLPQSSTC
Consider the cut-off 700 nM. If the recorded IC50 is strictly smaller, the label is rule met; if not, the label is rule not met.

Some solved entries appear below for comparison.
molecule="CCN1CCC(Oc2ccc(Nc3ncc(Cl)c(Nc4ccccc4S(=O)(=O)NC)n3)c(OC)c2)C1 (centres unmarked)" assigned_class="rule met"
molecule=CNS(=O)(=O)c1ccccc1Nc1nc(Nc2ccccc2OC(F)(F)F)ncc1Cl assigned_class="rule not met"
molecule=CNS(=O)(=O)c1ccccc1Nc1nc(Nc2cccc3cn[nH]c23)ncc1Br assigned_class="rule not met"
molecule="CCNC1CCN(c2ccc(Nc3ncc(Cl)c(Nc4ccccc4S(=O)(=O)NC(CC)CC)n3)c(OC)c2)C1 (centres unmarked)" assigned_class="rule met"

Req: Find out if reported IC50 for CNC(=O)c1ccccc1Nc1nc(Nc2ccc(N3CCN(C)CC3)cc2OC)ncc1Cl is less than 700 nM
Resp: rule met

Req: Find out if reported IC50 for COc1cc(N2CCCC(C(N)=O)C2)ccc1Nc1ncc(Cl)c(Nc2ccccc2S(=O)(=O)C(C)C)n1 (centres unmarked) is less than 700 nM
Resp: rule met

Req: Find out if reported IC50 for CNS(=O)(=O)c1ccccc1Nc1nc(Nc2ccc(OC3CCN(C)CC3)cc2OC)ncc1Cl is less than 700 nM
Resp: rule met

###

Below is a list of entries, each paired with its recorded log10 IC50 value.
target: Focal Adhesion Kinase (FAK) (Homo sapiens, UniProt Q05397); assay: FAK assay system (Focal Adhesion Kinase inhibition); format: biochemical; conditions: read-out: FAK IC50
Sequence (Q05397 384-706): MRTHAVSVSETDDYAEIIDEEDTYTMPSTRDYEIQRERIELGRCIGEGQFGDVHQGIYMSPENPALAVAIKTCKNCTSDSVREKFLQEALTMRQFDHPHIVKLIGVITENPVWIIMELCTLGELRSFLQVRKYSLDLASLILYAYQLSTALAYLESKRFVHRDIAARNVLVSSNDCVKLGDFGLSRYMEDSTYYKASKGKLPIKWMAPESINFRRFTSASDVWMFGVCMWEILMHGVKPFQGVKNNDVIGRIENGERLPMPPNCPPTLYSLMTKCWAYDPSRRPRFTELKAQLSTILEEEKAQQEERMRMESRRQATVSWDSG
// units: nM (pre-log); metric: IC50; scale: log10

The examples below pair each entry with its known result.
compound=CNC(=O)c1ccccc1Nc1nc(Nc2ccc(N3CCN4CCOC[C@H]4C3)cc2OC)ncc1Cl property="log10 IC50" endpoint_value=0.65
compound=CNS(=O)(=O)c1ccccc1Nc1nc(Nc2cc(OC)ccc2OCCO)ncc1Br property="log10 IC50" endpoint_value=1.95
compound="CCNC(=O)c1ccccc1Nc1nc(Nc2ccc(N3CCOCC3)cc2OC)ncc1Cl [Example 9-5]" property="log10 IC50" endpoint_value=1.34
compound=COc1cc(F)ccc1Nc1ncc(Cl)c(Nc2ccccc2S(=O)(=O)NC(C)C)n1 property="log10 IC50" endpoint_value=0.70
compound=COc1cc(N2CCOCC2)ccc1Nc1ncc(Cl)c(Nc2ccccc2S(=O)(=O)CCC(C)C)n1 property="log10 IC50" endpoint_value=1.11

Req: What value of log10 IC50 has been reported for the following compound? COc1cc(N2CCC(N3CCN(C)CC3)CC2)ccc1Nc1ncc(Cl)c(Nc2cccc3c2C(=O)N(C)C3)n1
Resp: 0.04

Req: What value of log10 IC50 has been reported for the following compound? COc1cc(N2CCN(C)C(=O)C2)ccc1Nc1ncc(Cl)c(Nc2ccccc2S(=O)(=O)C(C)C)n1
Resp: 0.77

Req: What value of log10 IC50 has been reported for the following compound? CNC(=O)c1ccccc1Nc1nc(Nc2ccc(OCCN3CCN(C)CC3)cc2OC)ncc1Cl
Resp: 0.52

Req: What value of log10 IC50 has been reported for the following compound? CNS(=O)(=O)c1ccccc1Nc1nc(Nc2ccc(N3CCCC(C(N)=O)C3)cc2OC)ncc1Cl (stereo not shown)
Resp: 1.15

Req: What value of log10 IC50 has been reported for the following compound? COc1cc(N2CCC(N(C)C)C2)ccc1Nc1ncc(Cl)c(Nc2ccccc2S(=O)(=O)C(C)C)n1 (stereo not shown)
Resp: 0.11

Req: What value of log10 IC50 has been reported for the following compound? COc1cc(-n2cncn2)ccc1Nc1ncc(Cl)c(Nc2ccccc2S(=O)(=O)C2CC2)n1
Resp: 1.40

Req: What value of log10 IC50 has been reported for the following compound? CNS(=O)(=O)c1ccccc1Nc1nc(Nc2ccc(F)cc2OC)ncc1Br
Resp: 1.08

Req: What value of log10 IC50 has been reported for the following compound? CNS(=O)(=O)c1ccccc1Nc1nc(Nc2ccc(N3CCSCC3)cc2OC)ncc1Br
Resp: 1.34

Req: What value of log10 IC50 has been reported for the following compound? CCCCc1ccccc1Nc1ncc(Br)c(Nc2ccccc2S(=O)(=O)NC)n1
Resp: 1.72

Req: What value of log10 IC50 has been reported for the following compound? NS(=O)(=O)c1ccccc1Nc1nc(Nc2cccc3c2OC(F)(F)O3)ncc1Br
Resp: 2.04

Req: What value of log10 IC50 has been reported for the following compound? CCCS(=O)(=O)c1ccccc1Nc1nc(Nc2ccc(N3CCC(O)C3)cc2OC)ncc1Cl (stereo not shown)
Resp: 0.32
